Biological target: UniProt P22518
Sequence (P22518 whole entry, looked up): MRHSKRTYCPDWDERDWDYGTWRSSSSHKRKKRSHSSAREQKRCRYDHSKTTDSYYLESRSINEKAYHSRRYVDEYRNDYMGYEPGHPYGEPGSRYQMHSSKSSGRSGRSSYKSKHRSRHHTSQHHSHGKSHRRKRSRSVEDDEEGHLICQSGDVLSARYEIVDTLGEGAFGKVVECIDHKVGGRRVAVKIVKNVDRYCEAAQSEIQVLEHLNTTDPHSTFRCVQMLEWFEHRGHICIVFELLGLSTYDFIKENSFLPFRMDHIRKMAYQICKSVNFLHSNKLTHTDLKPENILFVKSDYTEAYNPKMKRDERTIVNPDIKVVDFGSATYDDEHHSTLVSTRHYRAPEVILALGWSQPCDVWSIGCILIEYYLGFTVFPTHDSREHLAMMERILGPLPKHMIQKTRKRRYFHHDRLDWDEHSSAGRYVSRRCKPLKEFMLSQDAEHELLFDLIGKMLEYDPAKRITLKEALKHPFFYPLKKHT
Assay: Inhibition of mouse CLK1 assessed as residual activity at 10 uM by ADP-Glo assay relative to control
I would appreciate it if you labelled entries Fulfilled when Activity is 40% or higher, otherwise Not fulfilled.

Known results for molecules:
# Smi, Category Label
measured = [
    ("COc1ccc(-n2cc(COc3cccc4cnc(Nc5cccc(Cl)c5)nc34)nn2)cc1", "Fulfilled"),
    ("Clc1cccc(Nc2ncc3cccc(OCc4cn(Cc5ccccc5)nn4)c3n2)c1", "Fulfilled"),
    ("Cc1ccc(-n2cc(COc3cccc4cnc(Nc5cccc(Cl)c5)nc34)nn2)cc1[N+](=O)[O-]", "Not fulfilled"),
]

Ask: Hello, I need to know if `Clc1cccc(Nc2ncc3cccc(OCc4cn(-c5ccc(Br)cc5)nn4)c3n2)c1` has measured Activity not below 40%. Thanks!
Reply: Fulfilled

Ask: State whether the measured Activity reaches 40%, counting equality as reaching it, for `COc1ccccc1-n1cc(COc2cccc3cnc(Nc4cccc(Cl)c4)nc23)nn1`
Reply: Not fulfilled

Ask: Form field: Activity at least 40%? Entry: `Clc1cccc(Nc2ncc3cccc(OCc4cn(Cc5c(Cl)cccc5Cl)nn4)c3n2)c1`
Reply: Fulfilled

Ask: // inclusive: Activity at least 40%? input: `Clc1ccc(-n2cc(COc3cccc4cnc(Nc5cccc(Cl)c5)nc34)nn2)cc1`
Reply: Fulfilled

Ask: In plain terms: is recorded Activity at least 40% for `O=[N+]([O-])c1ccc(-n2cc(COc3cccc4cnc(Nc5cccc(Cl)c5)nc34)nn2)cc1` ?
Reply: Not fulfilled

Ask: Is Activity for `Clc1cccc(Nc2ncc3cccc(OCc4cn(-c5cc(Cl)cc(Cl)c5)nn4)c3n2)c1` at or above 40%?
Reply: Fulfilled

Ask: Dear colleague, could you confirm whether `Cc1ccc(-n2cc(COc3cccc4cnc(Nc5cccc(Cl)c5)nc34)nn2)c([N+](=O)[O-])c1` has Activity at or above 40%?
Reply: Not fulfilled

Ask: // inclusive: Activity at least 40%? input: `COc1cccc(-n2cc(COc3cccc4cnc(Nc5cccc(Cl)c5)nc34)nn2)c1`
Reply: Not fulfilled
